Test system: L6-myotubes
test: Glucose uptake in differentiated L6-myotubes (Biological Example 2)
Type: cell-based
test-settings: glucose uptake; compound at 10 μM relative to isoproterenol at 10 μM; read-out: Biological example 2 (GU)
experimental-readout: Emax at 10 µM

(Q) Name the recorded Emax at 10 µM of the item CCC[C@H]1CCC[C@@H]([C@H](O)c2cccc(O)c2)N1 in your answer.
(A) 50 to 75%

(Q) Using the record for CCCC(C)NC(C)C(O)c1ccc(O)cc1 (stereo not drawn) , state its measured Emax at 10 µM.
(A) 50 to 75%

(Q) Identify Emax at 10 µM associated with the compound CC12CCC([C@@H](O)c3cccc(F)c3)(CC1)N2
(A) 25 to 50%

(Q) Supply recorded Emax at 10 µM for CCC[C@H]1CCC[C@H]([C@H](O)c2cccc(O)c2)N1 here.
(A) > 75%

(Q) Assign Emax at 10 µM to the following record: CCC[C@@H](C)NC[C@H](O)c1cccc(F)c1
(A) > 75%

(Q) Specify measured Emax at 10 µM for CCC[C@@H]1CCC[C@H]([C@@H](O)c2ccccc2F)N1 .
(A) 25 to 50%

(Q) Answer with reported Emax at 10 µM of CCC[C@H]1CCC[C@H]([C@H](O)c2ccc(F)cc2)N1
(A) 25 to 50%

(Q) Return the recorded Emax at 10 µM value; entry: CC1(C)CC[C@@H]([C@@H](O)c2cccc(F)c2)N1
(A) 25 to 50%

(Q) Please supply the value of reported Emax at 10 µM for the item CCCC(C)NCC(O)c1cc(Cl)c(N)c(C(F)(F)F)c1 (stereo not drawn)
(A) 50 to 75%

###

Test system: L6-myotubes
test: Glucose uptake in differentiated L6-myotubes (Biological Example 2)
Format: cell-based
test-settings: glucose uptake; compound at 10 μM relative to isoproterenol at 10 μM; read-out: Biological example 2 (GU)
Would you kindly list Emax at 10 µM for each of these compounds?

(Q) Quick one: give measured Emax at 10 µM for CCC[C@H]1CCC[C@H]([C@@H](O)c2ccc(F)c(F)c2)N1
(A) 25 to 50%

(Q) Provide one value: measured Emax at 10 µM of CC1(C)CC[C@H]([C@H](O)c2cncc(O)c2)N1
(A) 50 to 75%

(Q) Query Emax at 10 µM for CCC[C@H]1CCC[C@H]([C@H](O)c2cncc(F)c2)N1
(A) < 25%

(Q) Given the compound CC1(C)CC[C@H]([C@@H](O)c2cccc(Cl)c2)N1 , write its reported Emax at 10 µM.
(A) 25 to 50%

(Q) Item C[C@H]1CC[C@@H]([C@@H](O)c2ccccc2)N1 (racemic) : provide Emax at 10 µM
(A) 50 to 75%

(Q) Please indicate Emax at 10 µM recorded for Oc1ccc(C(O)CNCCC2CCCCC2)cc1 (centres unmarked)
(A) 25 to 50%

(Q) Entry CCCCNC[C@H](O)c1csc(N)n1 needs its Emax at 10 µM filled in; supply it.
(A) 25 to 50%

(Q) Consider the compound Oc1ccc(C(O)CNCCCC2CC2)cc1 (centres unmarked) and give its recorded Emax at 10 µM.
(A) > 75%

(Q) For OC(CNCC1CCCCC1)c1ccccc1 (centres unmarked) , write its Emax at 10 µM.
(A) 25 to 50%

(Q) Using known records, supply Emax at 10 µM for CCC(C)NCC(O)c1ccc(O)cc1 (centres unmarked)
(A) 50 to 75%

(Q) Output Emax at 10 µM of CCC[C@H](C)NC[C@H](O)c1ccc(F)cc1
(A) 50 to 75%

(Q) Entry CCCC12CCC([C@H](O)c3cccc(F)c3)(CC1)N2 needs its Emax at 10 µM filled in; supply it.
(A) 50 to 75%

(Q) Determine its reported Emax at 10 µM: CCCCNC[C@H](O)c1cccc(N)c1F
(A) 50 to 75%

(Q) For the compound C[C@H]1CC[C@@H]([C@H](O)c2ccccc2)N1 (racemic) , give its measured Emax at 10 µM value.
(A) 25 to 50%

(Q) Respond only with Emax at 10 µM recorded for CCC[C@H]1CC[C@H]([C@H](O)c2cccc(F)c2)N1
(A) 50 to 75%

(Q) In one line, give reported Emax at 10 µM of the entry CC12CCC([C@H](O)c3cccc(F)c3)(CC1)N2 .
(A) 50 to 75%

(Q) Look up Emax at 10 µM of CCC[C@H]1CCC[C@H]([C@H](O)c2ccccc2Cl)N1 and report it.
(A) 25 to 50%

(Q) Using the record for CC12CC(C1)[C@@H]([C@@H](O)c1cccc(F)c1)N2 , state its measured Emax at 10 µM.
(A) 50 to 75%

(Q) For the compound CCCC1(CCC)CC[C@H]([C@H](O)c2cccc(F)c2)N1 , give its reported Emax at 10 µM.
(A) 50 to 75%

(Q) Please supply the value of reported Emax at 10 µM for the item CC1(NC[C@H](O)c2cccc(F)c2)CC1
(A) > 75%

(Q) Query Emax at 10 µM for CCC[C@@H](C)NC[C@H](O)c1ccc(O)cc1
(A) > 75%

(Q) Give the reported value of Emax at 10 µM for this record: CC(C)(C)NC[C@H](O)c1ccc(F)c(N)c1F
(A) > 75%

(Q) For CC12CCC([C@@H](O)c3cncc(F)c3)(CC1)N2 , write its Emax at 10 µM.
(A) 50 to 75%

(Q) Read the entry Cn1ccc([C@@H](O)CNC(C)(C)C)cc1=O and write its reported Emax at 10 µM.
(A) > 75%

(Q) Please give measured Emax at 10 µM of the following entry: CCCCNCC(O)c1cccnc1 (centres unmarked)
(A) 50 to 75%

(Q) Tell me its Emax at 10 µM given CCC[C@H]1CCC[C@H]([C@@H](O)c2cccc(O)c2)N1 as the entry.
(A) < 25%

(Q) Complete the entry with Emax at 10 µM for CCCCNCC(O)c1ccc(O)c(Cl)c1 (centres unmarked)
(A) 25 to 50%

(Q) Complete the entry with Emax at 10 µM for CC1(C)CCC[C@H]([C@H](O)c2cccc(O)c2)N1
(A) 25 to 50%

(Q) Note Emax at 10 µM for the compound shown: O[C@@H](c1cccc(F)c1)[C@H]1CCC2(CC2)N1
(A) 25 to 50%

(Q) Look up Emax at 10 µM of CC12CCC([C@H](O)c3cccc(Cl)c3)(CC1)N2 and report it.
(A) > 75%

(Q) Give the reported value of Emax at 10 µM for this record: CC(C)(C)NC[C@H](O)c1cccc(N)c1F
(A) > 75%

(Q) Entry CCCCNCC(O)c1cc(O)cc(O)c1 (centres unmarked) needs its Emax at 10 µM filled in; supply it.
(A) 50 to 75%

(Q) Quickly give me recorded Emax at 10 µM for CCCCNCC(O)c1cc(Cl)c(N)c(Cl)c1 (centres unmarked)
(A) > 75%

(Q) Specify measured Emax at 10 µM for CC12CCC([C@H](O)c3ccccc3Cl)(CC1)N2 .
(A) > 75%

(Q) Tell us which Emax at 10 µM value is on record for CC1(C)CCC[C@H]([C@H](O)c2ccccc2F)N1
(A) 50 to 75%

(Q) Output Emax at 10 µM of CCCCNCC(O)c1ccc(Cl)c(O)c1 (centres unmarked)
(A) > 75%

(Q) Name the recorded Emax at 10 µM of the compound listed here: CCCCNCC(O)c1cc(Cl)c(O)c(Cl)c1 (centres unmarked)
(A) < 25%

(Q) For CCC[C@@H]1CC[C@H]([C@H](O)c2cccc(Cl)c2)N1 , write its Emax at 10 µM.
(A) 50 to 75%

(Q) Determine from records and report Emax at 10 µM for CC(C)(C)NCC(O)c1ccncc1O (centres unmarked)
(A) > 75%

(Q) Please indicate Emax at 10 µM recorded for CCC[C@H]1CCC[C@H]([C@@H](O)c2cncc(F)c2)N1
(A) < 25%

(Q) Identify measured Emax at 10 µM corresponding to Oc1ccc(C(O)CNCCC2CC2)cc1 (centres unmarked)
(A) 50 to 75%
